From: patent US10752616B2

Target: UniProtKB P18911
Assay: Transactivation assay for RARγ (gal4-RAR fusion, pFR-luc reporter, COS-7 cells), Table 2
Type: cell-based
Conditions: Table 2; COS-7 reporter; mean of three or more determinations; inactive = no agonist action at highest concentration tested
pEC50: −log10 of the molar value.
# cutoff 8 applies to pEC50; >= gives Y, < gives N

Hi, just wondering whether "Cc1ccc(C)c2oc(-c3nnc(-c4ccc(C(=O)O)cc4Cl)o3)cc12" shows pEC50 of 8 or higher.
N

Could you tell me if the measured pEC50 of "O=C(O)c1ccc(-c2noc(-c3cc4c(C(F)(F)F)ccc(F)c4o3)n2)cc1" reaches 8 or more?
Y

Is it the case that "Cc1cc(-c2nc(-c3cc4c(C)ccc(C)c4o3)ns2)ccc1C(=O)O" has pEC50 reaching or exceeding 8?
N

Hi, just wondering whether "Cc1ccc(Cl)c2oc(-c3nc(-c4ccc(C(=O)O)cc4Cl)no3)cc12" shows pEC50 of 8 or higher.
N

Has "Cc1ccc(C)c2oc(-c3nc(-c4ccc(C(=O)O)cc4Cl)no3)cc12" a recorded pEC50 greater than or equal to 8?
N

Does pEC50 meet or surpass 8 for "Cc1cc(-c2noc(-c3cc4c(C)ccc(C)c4o3)n2)ccc1C(=O)O" ?
N

* * *

Biological target: RARγ (Mus musculus (Mouse), UniProt P18911)
Sequence (P18911 185-419): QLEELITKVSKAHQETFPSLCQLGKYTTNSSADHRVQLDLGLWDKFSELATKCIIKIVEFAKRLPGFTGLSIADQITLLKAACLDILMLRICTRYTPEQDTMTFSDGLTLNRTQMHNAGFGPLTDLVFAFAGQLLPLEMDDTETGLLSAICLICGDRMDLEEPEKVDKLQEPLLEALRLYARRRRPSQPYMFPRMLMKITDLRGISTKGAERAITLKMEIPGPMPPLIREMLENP
Experiment: Transactivation assay for RARγ (gal4-RAR fusion, pFR-luc reporter, COS-7 cells), Table 2
Format: cell-based
Conditions: fold-selectivity for RARβ over RARγ; >1 = selective for RARβ
value_type: RARγ/RARβ ratio
Write the number on its own, no unit after it.

// recorded RARγ/RARβ ratio for Cc1ccc(C)c2oc(-c3nc(-c4ccc(C(=O)O)cc4Cl)no3)nc12 [BHBA-024] : 2

RARγ/RARβ ratio for Cc1ccc(C)c2c(C)c(-c3nc(-c4ccc(C(=O)O)cc4Cl)no3)oc12 [BHBA-009] is 2.6

For record Cc1ccc(C)c2oc(-c3nc(-c4ccc(C(=O)O)cc4Cl)no3)cc12 [BHBA-002] the listed RARγ/RARβ ratio is 2.5

* * *

Molecular target: RARα (Mus musculus (Mouse))
Sequence (P11416 183-417): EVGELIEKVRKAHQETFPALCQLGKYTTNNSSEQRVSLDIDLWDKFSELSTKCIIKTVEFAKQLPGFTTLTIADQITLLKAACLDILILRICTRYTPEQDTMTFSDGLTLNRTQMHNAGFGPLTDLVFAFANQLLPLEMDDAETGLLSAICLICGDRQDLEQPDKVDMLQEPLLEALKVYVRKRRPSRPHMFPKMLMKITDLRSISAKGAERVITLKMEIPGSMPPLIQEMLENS
Assay: Transactivation assay for RARα (gal4-RAR fusion, pFR-luc reporter, COS-7 cells), Table 2
Format: cell-based
Conditions: fold-selectivity for RARβ over RARα; >1 = selective for RARβ
value_type: RARα/RARβ ratio
Number only, no unit.

Bench note, RARα (Mus musculus (Mouse)): "Cc1ccc(C)c2oc(-c3noc(-c4ccc(C(=O)O)c(F)c4)n3)cc12" , RARα/RARβ ratio reads 3.5

Let me check: "Cc1ccc(C)c2oc(-c3nnc(-c4ccc(C(=O)O)c(F)c4)o3)cc12" , system RARα (Mus musculus (Mouse)), measured RARα/RARβ ratio is 2

The reported RARα (Mus musculus (Mouse)) RARα/RARβ ratio of "Cc1ccc(C)c2oc(-c3nnc(-c4ccc(C(=O)O)cc4Cl)o3)cc12" is 8

Record "Cc1cc(C(=O)O)ccc1-c1nnc(-c2cc3c(C)ccc(C)c3o2)o1" ; system RARα (Mus musculus (Mouse)); RARα/RARβ ratio = 1.3

The measured RARα/RARβ ratio that "Cc1ccc(C)c2oc(-c3nc(-c4ccc(C(=O)O)cc4)ns3)cc12" showed for RARα (Mus musculus (Mouse)) is 3.7

Hey, RARα (Mus musculus (Mouse)) data for "Cc1ccc(C)c2oc(-c3nc(-c4ccc(C(=O)O)cc4Cl)no3)nc12" : RARα/RARβ ratio came out at 7.5

Hey, RARα (Mus musculus (Mouse)) data for "Cc1ccc(C)c2oc(-c3nnc(-c4ccc(C(=O)O)cc4)o3)cc12" : RARα/RARβ ratio came out at 4.6

Item: "Cc1ccc(C)c2sc(-c3nc(-c4ccc(C(=O)O)cc4)no3)cc12" | System: RARα (Mus musculus (Mouse)) | RARα/RARβ ratio: 9

Simply: "Cc1ccc(Cl)c2oc(-c3nc(-c4ccc(C(=O)O)cc4Cl)no3)cc12" , RARα (Mus musculus (Mouse)), RARα/RARβ ratio = 8

# "O=C(O)c1ccc(-c2noc(-c3cc4c(Cl)ccc(Cl)c4o3)n2)c(Cl)c1" with RARα (Mus musculus (Mouse)): RARα/RARβ ratio is 4

So the reported RARα/RARβ ratio for "Cc1ccc(C)c2oc(-c3noc(-c4ccc(C(=O)O)cc4)n3)cc12" , on RARα (Mus musculus (Mouse)), turned out to be 3

Observed RARα/RARβ ratio, RARα (Mus musculus (Mouse)), "Cc1ccc(C)c2oc(-c3noc(-c4ccc(C(=O)O)cc4F)n3)cc12" : 5.8

# value of RARα/RARβ ratio, RARα (Mus musculus (Mouse)), item "Cc1ccc(C)c2c(C)c(-c3nc(-c4ccc(C(=O)O)cc4Cl)no3)oc12" = 7.6

Tested on RARα (Mus musculus (Mouse)), the item "Cc1cc(C(=O)O)ccc1-c1nc(-c2cc3c(C)ccc(C)c3o2)no1" showed RARα/RARβ ratio equal to 15

RARα (Mus musculus (Mouse)) RARα/RARβ ratio of "Cc1ccc(C)c2oc(-c3noc(-c4ccc(C(=O)O)cc4Cl)n3)cc12" is 8.8

Sample "Cc1ccc(C)c2oc(-c3nc(-c4ccc(C(=O)O)cc4N)no3)cc12" , system: RARα (Mus musculus (Mouse)). Its RARα/RARβ ratio is 5

Case "Cc1ccc(C)c2oc(-c3nsc(-c4ccc(C(=O)O)c(F)c4)n3)cc12" , RARα (Mus musculus (Mouse)), RARα/RARβ ratio recorded as 13

Field RARα/RARβ ratio (RARα (Mus musculus (Mouse))), entry "Cc1ccc(C)c2oc(-c3nc(-c4ccc(C(=O)O)cc4Cl)no3)cc12" : 12

RARα/RARβ ratio value, target or system RARα (Mus musculus (Mouse)), for "Cc1ccc(C)c2oc(-c3nc(-c4ccc(C(=O)O)c(F)c4)ns3)cc12" : 4.6

"Cc1ccc(Cl)c2cc(-c3nc(-c4ccc(C(=O)O)cc4)no3)oc12" tested on RARα (Mus musculus (Mouse)) gave RARα/RARβ ratio: 7

The measured RARα/RARβ ratio that "Cc1ccc(C)c2sc(-c3nc(-c4ccc(C(=O)O)cc4)no3)nc12" showed for RARα (Mus musculus (Mouse)) is 6.7

* * *

Biological target: RARγ (Mus musculus (Mouse))
Experiment: Transactivation assay for RARγ (gal4-RAR fusion, pFR-luc reporter, COS-7 cells), Table 2
Settings: Table 2; COS-7 reporter; mean of three or more determinations; inactive = no agonist action at highest concentration tested
value_type: pEC50
Schema: pEC50 number; meaning minus log10 of the concentration expressed in molar units.

In plain terms, "Cc1ccc(C)c2c(C)c(-c3nc(-c4ccc(C(=O)O)cc4)no3)oc12" has a documented pEC50 of 8.17

For "Cc1ccc(C)c2c(C)c(-c3nc(-c4ccc(C(=O)O)cc4Cl)no3)oc12" the compound record lists pEC50 as 7.96

The compound listed as "Cc1ccc(Cl)c2cc(-c3nc(-c4ccc(C(=O)O)cc4)no3)oc12" has a reported pEC50 of 8.22
